Target: Lectin (Burkholderia cenocepacia (strain ATCC BAA-245 / DSM 16553 / LMG 16656/ NCTC 13227 / J2315 / CF5610) (Burkholderia cepacia (strain J2315)))
Assay: Displacement of N-(fluorescein-5-yl)-N'-(alpha-D-mannopyranosyloxyethyl)-thiocarbamide from Burkholderia cenocepacia J2315 BC2L-A expressed in Escherichia coli BL21 (DE3) cells incubated for 3 to 4 hrs by fluorescence polarization assay
pIC50: −log10 of the molar value.
Classes (pIC50): low (below 4), medium (4 to below 5), high (5 or more)

compound | assigned-category
CO[C@H]1O[C@H]([C@@H](O)CNC(=O)/C=C/c2ccccc2)[C@@H](O)[C@H](O)[C@@H]1O | medium
CO[C@H]1O[C@H]([C@@H](O)CNS(=O)(=O)c2ccc(C)cc2)[C@@H](O)[C@H](O)[C@@H]1O | medium
Cc1cc(=O)oc2cc(O[C@H]3O[C@H](CO)[C@@H](O)[C@H](O)[C@@H]3O)ccc12 | medium
OC[C@H]1OC[C@@H](O)[C@@H](O)[C@@H]1O | high
CO[C@H]1O[C@H](CO)[C@@H](O)[C@H](O)[C@@H]1O | high
C[C@H](O)[C@@H](O)[C@@H](O)[C@H](O)C=O [L-FUCOSE] | low

----------
Target: Lectin (Burkholderia cenocepacia (strain ATCC BAA-245 / DSM 16553 / LMG 16656/ NCTC 13227 / J2315 / CF5610) (Burkholderia cepacia (strain J2315))) (UniProt B4EH87)
Sequence (whole entry): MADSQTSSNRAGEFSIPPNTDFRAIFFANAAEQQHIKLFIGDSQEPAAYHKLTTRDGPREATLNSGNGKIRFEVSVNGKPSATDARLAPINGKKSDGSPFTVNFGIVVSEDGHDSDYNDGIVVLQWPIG
Assay: Displacement of N-(fluorescein-5-yl)-N'-(alpha-D-mannopyranosyloxyethyl)-thiocarbamide from Burkholderia cenocepacia J2315 BC2L-A expressed in Escherichia coli BL21 (DE3) cells up to 666 uM incubated for 3 to 4 hrs by fluorescence polarization assay relative to control
The source made the active and inactive calls. The calls are words filed in the database; no cut-off is given here.

given-smiles | inhibition
CO[C@H]1O[C@H]([C@H](O)CNC(=O)/C=C/c2ccccc2)[C@@H](O)[C@H](O)[C@@H]1O | inactive
C=CCO[C@H]1O[C@H](CO)[C@@H](O)[C@H](OC)[C@@H]1O | 56%
C=CCO[C@H]1O[C@H](CO)[C@@H](OC)[C@H](O)[C@@H]1O | inactive
CO[C@H]1O[C@H](CBr)[C@@H](O)[C@H](O)[C@@H]1O | inactive
C[C@@H]1OC[C@@H](O)[C@H](O)[C@@H]1O | inactive

----------
Target: Lectin (Burkholderia cenocepacia (strain ATCC BAA-245 / DSM 16553 / LMG 16656/ NCTC 13227 / J2315 / CF5610) (Burkholderia cepacia (strain J2315)), UniProt B4EH87)
Assay: Displacement of N-(fluorescein-5-yl)-N'-(alpha-D-mannopyranosyloxyethyl)-thiocarbamide from Burkholderia cenocepacia J2315 BC2L-A expressed in Escherichia coli BL21 (DE3) cells incubated for 3 to 4 hrs by fluorescence polarization assay
Strictly below 10 µM in IC50: Fulfilled. Otherwise: Not fulfilled.

given-smiles | assigned-category
Cc1cc(=O)oc2cc(O[C@@H]3O[C@H](CO)[C@@H](O)[C@H](O)[C@@H]3O)ccc12 | Fulfilled
CO[C@H]1O[C@H]([C@@H](O)CNC(=O)c2ccccc2)[C@@H](O)[C@H](O)[C@@H]1O | Not fulfilled
C=CCO[C@H]1O[C@H](CO)[C@@H](O)[C@H](O)[C@@H]1O | Not fulfilled
C[C@@H]1O[C@H](CO)[C@@H](O)[C@H](O)[C@@H]1O | Not fulfilled
CO[C@H]1O[C@H]([C@@H](O)CNC(C)=O)[C@@H](O)[C@H](O)[C@@H]1O | Not fulfilled
CO[C@H]1O[C@H]([C@@H](O)CNS(=O)(=O)c2c(C)cc(C)cc2C)[C@@H](O)[C@H](O)[C@@H]1O | Not fulfilled
